- System: T1, human PD1 human Fc tagged recombinant protein (human, UniProt Q15116 25-170)
- T1 construct: also called human PD1-Fc; hu PD1; not shown: human Fc tag
- T1 sequence (Q15116 25-170 limits assumed): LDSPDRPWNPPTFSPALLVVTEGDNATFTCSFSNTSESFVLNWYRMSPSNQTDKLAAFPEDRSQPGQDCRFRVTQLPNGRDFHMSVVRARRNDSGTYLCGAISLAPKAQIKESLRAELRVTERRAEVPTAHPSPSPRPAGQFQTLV
- Assay Name: direct titration ELISA, IgG1 null on coated PD1-Fc (FIG. 3A)
Measure: binding result

Binder: hMAb005 IgG1 null (antibody, V domains shown, Tested as human IgG1 null (L234A, L235A, G237A) with human C kappa; also called humanized MAb005) VH: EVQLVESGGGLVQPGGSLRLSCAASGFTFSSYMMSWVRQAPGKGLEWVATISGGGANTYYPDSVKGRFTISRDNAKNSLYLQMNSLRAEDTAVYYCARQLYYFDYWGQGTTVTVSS VL: DIQMTQSPSSLSASVGDRVTITCLASQTIGTWLTWYQQKPGKAPKLLIYTATSLADGVPSRFSGSGSGTDFTLTISSLQPEDFATYYCQQVYSIPWTFGGGTKVEIK
Test Result: binds
--
Binder: MAB05 IgG1 null (antibody, V domains shown, Human IgG1 null format (L234A, L235A, G237A) with human C kappa; only variable domains are tied to the clone) VH: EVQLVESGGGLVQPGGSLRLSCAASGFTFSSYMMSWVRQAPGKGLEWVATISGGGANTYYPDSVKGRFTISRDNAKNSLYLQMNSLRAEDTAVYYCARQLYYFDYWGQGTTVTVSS VL: DIQMTQSPSSLSASVGDRVTITCLASQPLGIWLSWYQQKPGKAPKLLIYTATSLADGVPSRFSGSGSGTDFTLTISSLQPEDFATYYCQQVSVTPFTFGGGTKVEIK
Test Result: binds
--
Binder: MAB06 IgG1 null (antibody, V domains shown, Human IgG1 null format (L234A, L235A, G237A) with human C kappa; only variable domains are tied to the clone) VH: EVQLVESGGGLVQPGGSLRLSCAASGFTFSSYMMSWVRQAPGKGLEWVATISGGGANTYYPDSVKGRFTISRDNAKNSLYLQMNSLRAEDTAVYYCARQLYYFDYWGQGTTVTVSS VL: DIQMTQSPSSLSASVGDRVTITCLASQESGIWLSWYQQKPGKAPKLLIYTATSLADGVPSRFSGSGSGTDFTLTISSLQPEDFATYYCQQVSVTPFTFGGGTKVEIK
Test Result: binds
